# target_entity: T1, hen egg-white lysozyme (hen, UniProt P00698 19-147)
# T1 construct: also called HEL
# test_name: fluorescence titration in solution, 0.3 µM conjugate, buffer C, 25 °C
Each record here notes measured Kd.
# output: bare number, implied unit nM

Below, 4 binders whose answers are already recorded.
H4S conjugate, IANBD fluorophore coupled at position Asn9 (designed binder, Cys at position 9 (H4S numbering) coupled to IANBD ester (ANBD)) MRGSHHHHHHGSVKVKFFWCGEEKEVDTSKIVWVKRAGKSVLFIYDDNGKNGYGDVTEKDAPKELLDMLARAEREKKLN | 7
H4S(K24ANBD) (designed binder, Cys at position 24 (H4S numbering) coupled to IANBD ester (ANBD), also called H4S(Lys24ANBD); Lys24) MRGSHHHHHHGSVKVKFFWNGEEKEVDTSKIVWVCRAGKSVLFIYDDNGKNGYGDVTEKDAPKELLDMLARAEREKKLN | 98
H4S(A26ANBD) (designed binder, Cys at position 26 (H4S numbering) coupled to IANBD ester (ANBD), also called Ala26) MRGSHHHHHHGSVKVKFFWNGEEKEVDTSKIVWVKRCGKSVLFIYDDNGKNGYGDVTEKDAPKELLDMLARAEREKKLN | 206
H4S conjugate, IANBD fluorophore coupled at position Leu31 (designed binder, Cys at position 31 (H4S numbering) coupled to IANBD ester (ANBD)) MRGSHHHHHHGSVKVKFFWNGEEKEVDTSKIVWVKRAGKSVCFIYDDNGKNGYGDVTEKDAPKELLDMLARAEREKKLN | 8360

// returns reported Kd for input H4S conjugate, IANBD fluorophore coupled at position Val21 (designed binder, Cys at position 21 (H4S numbering) coupled to IANBD ester (ANBD)) MRGSHHHHHHGSVKVKFFWNGEEKEVDTSKICWVKRAGKSVLFIYDDNGKNGYGDVTEKDAPKELLDMLARAEREKKLN
296
